Measured on: T1, N-terminally His6-tagged human PCNA (proliferating cell nuclear antigen) (human, UniProt P12004 1-261)
T1 construct: Proliferating cell nuclear antigen, human; The tag is used for capture in SPR; source: E. coli BL21(DE3), purified (Ni-NTA, SEC)
Experimental details: ITC; ITC200; PCNA injected into the peptide; 10 mM HEPES, 150 mM NaCl, 1 mM EDTA, 1 mM TCEP, pH 7.4; 25 °C; single binding site model; triplicates
Measurement conditions: both partners purified
Property name: pKd
pKd field: float, defined as -log10 of concentration (mol/L).

# example entries with known answers
Binder	Observed measurement
Ac-RKRRQTSMTDFYHSKRRL-NH2 (also called extended peptide; source: peptide, > 95% purity) [p21^140–157 peptide]	7.57
Ac-RKRRQGRLDDFFHSKRRL-NH2 (PIP-box motif of flap endonuclease 1 (FEN1), human; also called p21 flanks grafted to Fen1; source: peptide, > 95% purity)	6.14
RKRRQTSMTDFYHSKRRLIFSKRKP (N-terminally acetylated, C-terminally amidated, called p21^140–163 in the results and the ITC methods; the name p21^140–163 is used elsewhere for the same peptide; also called p21^140–163; source: peptide, > 95% purity) [p21^140–164 peptide (Ac-[residues removed]-NH2)]	8.19

input: Looking for the measured pKd of Ac-RKRRATSMTDFYHSKRRL-NH2 (also called p21 peptide variant with Q at the first position mutated to alanine; source: peptide, > 95% purity) [p21^140–157,Q144A (Ac-RKRRATSMTDFYHSKRRL-NH2)] , can you help?
output: 5.89
